- experimental_target: PI3Kalpha (Homo sapiens (Human), UniProt P42336)
- Sequence (P42336 whole entry, looked up): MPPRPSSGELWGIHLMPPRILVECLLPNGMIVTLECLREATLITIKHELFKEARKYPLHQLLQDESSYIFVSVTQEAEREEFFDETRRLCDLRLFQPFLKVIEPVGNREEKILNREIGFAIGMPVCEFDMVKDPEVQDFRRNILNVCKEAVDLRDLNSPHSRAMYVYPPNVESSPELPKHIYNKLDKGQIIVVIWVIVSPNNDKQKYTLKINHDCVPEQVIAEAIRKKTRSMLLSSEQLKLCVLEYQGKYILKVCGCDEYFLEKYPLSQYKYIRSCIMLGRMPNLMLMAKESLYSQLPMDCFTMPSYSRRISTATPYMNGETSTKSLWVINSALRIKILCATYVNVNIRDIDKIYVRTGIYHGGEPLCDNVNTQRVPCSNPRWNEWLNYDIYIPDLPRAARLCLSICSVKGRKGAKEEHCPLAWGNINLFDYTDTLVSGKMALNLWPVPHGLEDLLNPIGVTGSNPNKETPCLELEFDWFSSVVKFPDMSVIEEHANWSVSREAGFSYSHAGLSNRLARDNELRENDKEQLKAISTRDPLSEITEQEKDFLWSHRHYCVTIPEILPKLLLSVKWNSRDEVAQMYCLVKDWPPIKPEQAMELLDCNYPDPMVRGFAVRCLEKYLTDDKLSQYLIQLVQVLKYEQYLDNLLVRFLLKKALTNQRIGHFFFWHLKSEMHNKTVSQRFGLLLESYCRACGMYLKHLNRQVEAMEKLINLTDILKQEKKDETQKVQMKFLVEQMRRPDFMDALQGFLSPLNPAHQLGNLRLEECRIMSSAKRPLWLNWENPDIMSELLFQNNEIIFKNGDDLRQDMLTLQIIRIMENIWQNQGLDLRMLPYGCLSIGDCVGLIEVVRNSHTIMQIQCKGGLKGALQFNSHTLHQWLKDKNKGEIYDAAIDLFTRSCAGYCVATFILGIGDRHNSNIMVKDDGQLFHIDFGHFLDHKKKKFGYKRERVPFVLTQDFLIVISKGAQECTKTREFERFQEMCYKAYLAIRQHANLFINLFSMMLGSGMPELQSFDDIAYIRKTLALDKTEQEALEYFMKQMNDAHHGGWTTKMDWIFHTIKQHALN
Can you tell me pIC50 for the items I'm about to list?
One number for each entry, as −log10 of the molar value.

List the reported pIC50 of each compound below.
1. CCc1ncnc(-c2ccc(C(=O)N3CCN(CC(F)F)CC3)c(OC)c2)c1C#Cc1ccc(N)nc1
2. CCc1ncnc(-c2cc(F)c(C(=O)N3CCNCC3)c(F)c2)c1C#Cc1ccc(N)nc1
3. CCc1ncnc(-c2ccc(C(=O)N3CCN4CCC[C@@H]4C3)c(F)c2)c1C#Cc1ccc(N)nc1
4. CCc1ncnc(-c2ccc(C(=O)N3CCN(CCN(C)C)CC3)c(F)c2)c1C#Cc1ccc(N)nc1C
5. Cc1ncnc(-c2ccc(N3CCCCC3)nc2)c1C#Cc1ccc(N)nc1
6. CCc1ncnc(-c2cc(F)c(C(=O)N3CCC(N4CCOCC4)CC3)c(F)c2)c1C#Cc1ccc(N)nc1
7. CCc1ncnc(-c2cc(F)c(C(=O)N3CCN(C)CC3)c(Cl)c2)c1C#Cc1ccc(N)nc1
8. CCc1ncnc(-c2ccc(C(=O)N3CCN(CC4CCCCC4)CC3)c(C)c2)c1C#Cc1ccc(N)nc1

Resp:
[7.20, 6.45, 6.70, 6.26, 7.19, 6.70, 7.05, 6.38]
